These measurements were taken from patent US20140065163A1.

target: human GM-CSF T117 (human, UniProt P04141 18-144); test: cell-based or functional assay
Sequence (P04141 18-144 I117T limits assumed): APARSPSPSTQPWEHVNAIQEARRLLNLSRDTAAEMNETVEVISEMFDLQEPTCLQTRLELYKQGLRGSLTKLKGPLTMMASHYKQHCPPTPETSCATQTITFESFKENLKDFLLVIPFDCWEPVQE
For each record, write down the corresponding IC50, inhibition of GM-CSF induced TF-1 proliferation (32 pM GM-CSF).

# annotated cases, reported IC50, inhibition of GM-CSF induced TF-1 proliferation (32 pM GM-CSF) shown
- MSB0010601 4K21 (4K21 hVH S55K-T62S hVL N28I-H34S-N53R-H93Y) (antibody, V domains shown, IgG; also called optimized 4K21 antibody) VH: EVQLVESGGGLVQPGGSLRLSCAASGFAFSAYDMSWVRQAPGKRLELVAYISSGGKSFYYPDSVKGRFTISRDNAKNSLYLQMNSLRAEDTAVYYCTRHLGFDYWGQGTLVTVSS VL: DIVMTQSPLSLPVTPGEPASISCRSSQSLVNSIGNTYLSWYLQKPGQSPQLLIYKVSRRFSGVPDRFSGSGSGTDFTLKISRVEAEDVGVYYCSQSTYVPPTFGQGTKVEIK: 21 pM
- MSB0010595 4K21 (4K21 hVH S56V-T62S hVL S27eY-N28I-H34S-N53R-H93Y) (antibody, V domains shown) VH: EVQLVESGGGLVQPGGSLRLSCAASGFAFSAYDMSWVRQAPGKRLELVAYISSGGSVFYYPDSVKGRFTISRDNAKNSLYLQMNSLRAEDTAVYYCTRHLGFDYWGQGTLVTVSS VL: DIVMTQSPLSLPVTPGEPASISCRSSQSLVNYIGNTYLSWYLQKPGQSPQLLIYKVSRRFSGVPDRFSGSGSGTDFTLKISRVEAEDVGVYYCSQSTYVPPTFGQGTKVEIK: 46 pM
- humanized parental 4K21 hVH hVL + H93Y (MS100305-A) (antibody, V domains shown) VH: EVQLVESGGGLVQPGGSLRLSCAASGFAFSAYDMSWVRQAPGKRLELVAYISSGGSSFYYPDTVKGRFTISRDNAKNSLYLQMNSLRAEDTAVYYCTRHLGFDYWGQGTLVTVSS VL: DIVMTQSPLSLPVTPGEPASISCRSSQSLVNSNGNTYLHWYLQKPGQSPQLLIYKVSNRFSGVPDRFSGSGSGTDFTLKISRVEAEDVGVYYCSQSTYVPPTFGQGTKVEIK: 172 pM

Next up:
Just so you know, measured IC50, inhibition of GM-CSF induced TF-1 proliferation (32 pM GM-CSF) for MSB0010603 4K21 (4K21 hVH S56V-T62S hVL N28I-H34S-N53R-H93Y) (antibody, V domains shown, IgG) VH: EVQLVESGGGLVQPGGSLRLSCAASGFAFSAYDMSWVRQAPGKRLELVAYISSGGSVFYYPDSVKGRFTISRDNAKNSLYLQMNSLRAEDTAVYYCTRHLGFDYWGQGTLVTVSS VL: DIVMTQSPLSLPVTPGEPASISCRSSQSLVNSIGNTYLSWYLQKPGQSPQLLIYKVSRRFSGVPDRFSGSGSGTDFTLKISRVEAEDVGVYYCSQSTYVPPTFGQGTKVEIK came out at 34 pM
